- Test system: DU-145 prostate
- measurement-protocol: NCI-60 one-dose screen, 48 h (100 = growth as untreated, 0 = no growth, -100 = all killed)
- test-parameters: 10 µM unless noted
Compounds without any hit were thinned out: in the full panel of roughly 83,000, 20% have a hit.
property-label: growth (%)
State the answer as a number, implicitly in %.

Lookup: Request body: readout growth, system DU-145 prostate, query CCC12CCC3c4ccc(O)cc4CCC3C1CC(O)C2O (centres undefined) . Return the value.
Found: 103

Lookup: Request body: readout growth, system DU-145 prostate, query COc1ccc(/C=C(\C#N)c2ccc(OC)cc2)cc1 . Return the value.
Found: 72.3

Lookup: Request body: readout growth, system DU-145 prostate, query FC(F)(F)c1cc(CNc2nc(Cl)ncc2Br)cc(C(F)(F)F)c1 . Return the value.
Found: 98.9

Lookup: Request body: readout growth, system DU-145 prostate, query O=C1/C(=C/c2ccc(Oc3ccccc3)cc2)N=C(c2ccccc2)N1CCc1cccs1 . Return the value.
Found: 98

Lookup: Request body: readout growth, system DU-145 prostate, query CC(C)(C)[Si](C)(C)OC1[C@@H](COC(=O)NC(=O)CCl)O[C@@H](n2cnc3c(N)ncnc32)[C@H]1O[Si](C)(C)C(C)(C)C (some centres undefined) . Return the value.
Found: 46.2

Lookup: Request body: readout growth, system DU-145 prostate, query Nc1nc(N)c(N=Nc2c(Br)cc(S(N)(=O)=O)cc2Br)c(N)n1 . Return the value.
Found: 109

Lookup: Request body: readout growth, system DU-145 prostate, query O=C1C2CC3C(CC2C(=O)[N]1[Sn]([c]1ccccc1)([c]1ccccc1)[c]1ccccc1)C1(Cl)C(Cl)=C(Cl)C3(Cl)C1(Cl)Cl (centres undefined) . Return the value.
Found: -94.5

Lookup: Request body: readout growth, system DU-145 prostate, query COc1ccc(/C=C2\CN(Cc3cn(CCCNc4ccnc5cc(Cl)ccc45)nn3)C/C(=C\c3ccc(OC)cc3)C2=O)cc1 . Return the value.
Found: 40.2

Lookup: Request body: readout growth, system DU-145 prostate, query O=C(c1cnn2c1NC(c1ccc(F)cc1)C2)N1CCCCC1 (centres undefined) . Return the value.
Found: 103

Lookup: Request body: readout growth, system DU-145 prostate, query COc1ccc(C(=O)C2=CC(=O)C(=O)C2)cc1OC . Return the value.
Found: 111

Lookup: Request body: readout growth, system DU-145 prostate, query COc1cccc(C2CC(=O)Nc3cc4c(cc32)OCO4)c1OC (centres undefined) . Return the value.
Found: 103

Lookup: Request body: readout growth, system DU-145 prostate, query c1ccc2cc(Cn3c(-c4ccc5ccccc5c4)[n+](Cc4ccc5ccccc5c4)c4ccccc43)ccc2c1 . Return the value.
Found: -19.2

Lookup: Request body: readout growth, system DU-145 prostate, query COC(=O)c1ccc(C(=O)Nc2ccccc2N)cc1 . Return the value.
Found: 80.2

Lookup: Request body: readout growth, system DU-145 prostate, query N#Cc1ccc(C(F)(F)F)nc1N1CCC(C(=O)Nc2ccc(Cl)cc2)CC1 . Return the value.
Found: 86.6

Lookup: Request body: readout growth, system DU-145 prostate, query Cc1cc(NS(=O)(=O)c2ccc(NC(=O)COc3ccc(-c4cc5ccccc5[nH]4)cc3)cc2)no1 . Return the value.
Found: 18.5

Lookup: Request body: readout growth, system DU-145 prostate, query CON=C1C[C@]2(C[C@@H]3C[C@@H](C/C=C(\C)C[C@@H](C)/C=C/C=C4\CO[C@@H]5[C@H](O)C(C)=C[C@@H](C(=O)O3)[C@]45O)O2)O[C@H](/C(C)=C/C(C)C)[C@H]1C . Return the value.
Found: 39.6

Lookup: Request body: readout growth, system DU-145 prostate, query CCCCCCCCCCCCCCCC[N+]1(C)CCOCC1 . Return the value.
Found: 28.7

Lookup: Request body: readout growth, system DU-145 prostate, query c1ccc(-c2n(Cc3ccc4ccccc4c3)c3ccccc3[n+]2Cc2ccc3ccccc3c2)cc1 . Return the value.
Found: 4.24

Lookup: Request body: readout growth, system DU-145 prostate, query O=C(N/N=C/c1ccc2c(c1)OCO2)c1cnn2c1NC(c1ccccc1)C2 (centres undefined) . Return the value.
Found: 60.9
